# protocol.description: HepG2 cytotoxicity, dose response, cytotoxicity control, cell-based, ATP luminescence, dry powder, set 10 (AID 743348)
# condition.context: HepG2 viability, CellTiter-Glo ATP luminescence, 72 h; at 26 µM (top of the series)
Criterion: activity change, negative = cytotoxicity strictly less than 10%. Met: rule met. Not met: rule not met.

// below: answered compounds
Input line: Please let me know if `O=C(c1ccc2c(c1)OCO2)N1CCN(c2ccc(S(=O)(=O)C(F)(F)F)cc2)CC1` shows activity change, negative = cytotoxicity below 10%.
Output line: rule not met

Input line: Please let me know if `CC(=O)c1ccc(N2CCN(C(=O)c3ccc4c(c3)OCO4)CC2)cc1` shows activity change, negative = cytotoxicity below 10%.
Output line: rule met

Input line: Please let me know if `CC(=O)c1ccc(N2CCN(C(=O)c3ccc(Cl)c(Cl)c3)CC2)cc1` shows activity change, negative = cytotoxicity below 10%.
Output line: rule not met

Continuing:
Input line: Please let me know if `N#Cc1ccc(N2CCN(C(=O)c3ccc4c(c3)OCO4)CC2)cc1` shows activity change, negative = cytotoxicity below 10%.
Output line: rule met

Input line: Please let me know if `CC(=O)c1ccc(N2CCN(C(=O)c3ccc4c(c3)OC(F)(F)O4)CC2)cc1` shows activity change, negative = cytotoxicity below 10%.
Output line: rule not met

---

As shown below, each of these compounds has a reported activity change, negative = cytotoxicity value.
# protocol.description: HepG2 cytotoxicity, dose response, cytotoxicity control, cell-based, ATP luminescence, dry powder, set 10 (AID 743348)
# condition.context: HepG2 viability, CellTiter-Glo ATP luminescence, 72 h; at 26 µM (top of the series)
Calls of active or inactive are those of the source.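 The calls were made as follows: active = AC50 for ATP loss at or below twice the top valid dose tested, with the signal falling; inconclusive = flat fit showing moderate loss, or a poor-quality fit; inactive = the rest, including rises in signal.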

// below: answered compounds
What the record says about `O=C(c1ccc2c(c1)OCO2)N1CCN(c2ccc(C(F)(F)F)cc2)CC1` : activity change, negative = cytotoxicity is 7.07% (inactive)

What the record says about `COc1ccc(C(=O)N2CCN(c3ccc(C(C)=O)cc3)CC2)cc1OC` : activity change, negative = cytotoxicity is 9.73% (inactive)

What the record says about `CC(=O)c1ccc(N2CCN(C(=O)c3ccc4c(c3C)OCO4)CC2)cc1` : activity change, negative = cytotoxicity is 0.898% (inactive)

What the record says about `CC(=O)c1ccc(N2CCN(C(=O)c3cccc4c3OCO4)CC2)cc1` : activity change, negative = cytotoxicity is 14.1% (inactive)

What the record says about `CC(=O)c1ccc(N2CCN(C(=O)c3cc4c(cc3C)OCO4)CC2)cc1` : activity change, negative = cytotoxicity is 31.1% (inactive)

Continuing:
What the record says about `CC(=O)c1ccc(N2CCN(C(=O)c3cc4c(cn3)OCO4)CC2)cc1` : activity change, negative = cytotoxicity is -2.87% (inactive)

What the record says about `CC(=O)c1ccc(N2CCN(C(=O)c3ccc4snnc4c3)CC2)cc1` : activity change, negative = cytotoxicity is 19.1% (inactive)

What the record says about `COc1cc(C(=O)N2CCN(c3ccc(C(C)=O)cc3)CC2)cc2c1OCO2` : activity change, negative = cytotoxicity is 12% (inactive)

What the record says about `CC(=O)c1ccc(N2CCN(C(=O)Nc3ccc4c(c3)OCO4)CC2)cc1` : activity change, negative = cytotoxicity is -12% (inactive)

What the record says about `O=C(c1ccc2c(c1)OCO2)N1CCN(c2ccc(S(=O)(=O)C(F)F)cc2)CC1` : activity change, negative = cytotoxicity is 27.7% (inactive)

What the record says about `CC(=O)c1ccc(N2CCN(C(=O)c3cc(Cl)c4c(c3)OCO4)CC2)cc1` : activity change, negative = cytotoxicity is 6.73% (inactive)

What the record says about `CC(=O)c1ccc(N2CCN(C(=O)c3ccc4c(c3)OC(C)(C)O4)CC2)cc1` : activity change, negative = cytotoxicity is -6.05% (inactive)

What the record says about CC(=O)c1ccc(N2CC3CC2CN3C(=O)c2ccc3c(c2)OCO3)cc1 (centres undefined) : activity change, negative = cytotoxicity is 36.6% (inactive)

What the record says about `O=C(c1ccc2c(c1)OCO2)N1CCN(c2ccc(OC(F)(F)F)cc2)CC1` : activity change, negative = cytotoxicity is -0.808% (inactive)
